- System: phospho-ERK in ST88 cells
- measurement.description: phospho-ERK ELISA in ST88 cells
- Type: cell-based
- test.settings: ST88 cells (NF1+/−)
measure.name: pEC50
Give bare numbers, as −log10 of the molar value.

Enquiry: Look up and report measured pEC50 for this entry: Cn1c(Nc2ccc(C(F)(F)F)cc2)nc2cc(Oc3ccnc(-c4ncc(C(F)(F)F)[nH]4)c3)ccc21
Return: 6.73
